- Assay: Cytotoxicity, resazurin, 72 h
- Assay type: cell-based, human
- Condition description: human, HeLa
Quantity kind: IC50 at 72 h

Molecule smiles: C[C@@H]1CC[C@@]2(OC1)O[C@H]1C[C@H]3[C@@H]4CC=C5C[C@@H](O)CC[C@]5(C)[C@H]4CC[C@]3(C)[C@H]1[C@@H]2C
Quantity kind: IC50 at 72 h
Assay value: > 50 µM

###

Items are presented alongside their recorded Stern-Volmer constant KSV.
- Test system: S. aureus 8325-4 membrane proteins (Trp^214 residues)
- Assay: Trp fluorescence quenching of bacterial membrane proteins (Stern-Volmer)
- Type: binding, Staphylococcus aureus
- Condition description: compound 0.5–2.0 µM, PBS pH 7.4, λexc 295 nm, λem 350 nm
- Text: Based on fluorescence analysis, the Stern-Volmer plots were drawn (Figure 5) using equation given below (Equation (1)). (1) F0/F=1+KSV[Q] where: F0 and F are the Trp fluorescence without and in the presence of quencher (studied compounds), KSV—Stern-Volmer constant, [Q]—concentration of the quencher. […]
Quantity kind: Stern-Volmer constant KSV

Molecule: CC1CCC2(OC3CC4C5CC=C6CC(O)CCC6(C)C5CCC4(C)C3C2C)[S+]([O-])C1 (stereo not drawn) [Sulfoxide 6]
Quantity kind: Stern-Volmer constant KSV
Assay value: 4.051 ± 0.170 10^4 M^−1
//
Molecule: C[C@@H]1CC[C@@]2(OC1)O[C@H]1C[C@H]3[C@@H]4CC=C5C[C@@H](O)CC[C@]5(C)[C@H]4CC[C@]3(C)[C@H]1[C@@H]2C
Quantity kind: Stern-Volmer constant KSV
Assay value: 5.441 ± 0.131 10^4 M^−1
//
Molecule: CC1CCC2(OC3CC4C5CC=C6CC(O)CCC6(C)C5CCC4(C)C3C2C)SC1 (stereo not drawn)
Quantity kind: Stern-Volmer constant KSV
Assay value: 8.322 ± 0.142 10^4 M^−1
//
Molecule: CC1CCC2(OC3CC4C5CC=C6CC(O)CCC6(C)C5CCC4(C)C3C2C)S(=O)(=O)C1 (stereo not drawn)
Quantity kind: Stern-Volmer constant KSV
Assay value: 2.915 ± 0.175 10^4 M^−1
//
Molecule: CC1CCC2(CC1)O[C@H]1C[C@H]3[C@@H]4CC[C@H]5C[C@@H](O)CC[C@]5(C)[C@H]4CC[C@]3(C)[C@H]1[C@@H]2C (stereo partly drawn)
Quantity kind: Stern-Volmer constant KSV
Assay value: 1.258 ± 0.189 10^4 M^−1
//
Molecule: CC1CCC2(OC3CC4C5CC=C6CC(O)CCC6(C)C5CCC4(C)C3C2C)S(=O)(=O)C1C (stereo not drawn)
Quantity kind: Stern-Volmer constant KSV
Assay value: 3.442 ± 0.168 10^4 M^−1
